B1: FAM164A (parent)
chain: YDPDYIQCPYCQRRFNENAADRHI

Variants of: B1
protocol_details: protein stability index of a GFP-peptide fusion (GPS, HEK-293T) (PSI 1-6); higher = more stable;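 note: lentivirally expressed fusions sorted by FACS into six bins by GFP to DsRed ratio, PSI derived from sequencing read proportions per bin multiplied by bin number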
conditions: c terminus: a fixed tail appended
outcome_measure: protein stability index
API doc: respond with a numeric literal and nothing else, no unit.

# protein stability index (variant: Y5A ) is 4.05

# protein stability index (variant: R22S ) is 4.03

# protein stability index (variant: H23G ) is 4.05

# protein stability index (variant: N16K ) is 4.8

# protein stability index (variant: D4S ) is 4.49

# protein stability index (variant: D4T ) is 4.08

# protein stability index (variant: Q12H ) is 4.93

# protein stability index (variant: Q7A ) is 3.27

# protein stability index (variant: N16I ) is 4.75

# protein stability index (variant: N16M ) is 4.54

# protein stability index (variant: D21Q ) is 4.71

# protein stability index (variant: D2R ) is 4.07

# protein stability index (variant: F15A ) is 3.08

# protein stability index (variant: Y10R ) is 2.99

# protein stability index (variant: D2Y ) is 3.71

# protein stability index (variant: Q12K ) is 5.16

# protein stability index (variant: C8V ) is 3.81

# protein stability index (variant: Y5K ) is 3.21

# protein stability index (variant: N16S ) is 4.56

# protein stability index (variant: Y10G ) is 3.32

# protein stability index (variant: I6D ) is 3.6

# protein stability index (variant: F15H ) is 3.14

# protein stability index (variant: R13K ) is 4.32

# protein stability index (variant: R14K ) is 4.01

# protein stability index (variant: Q7D ) is 2.64

# protein stability index (variant: R13L ) is 2.64

# protein stability index (variant: A20I ) is 4.37

# protein stability index (variant: H23A ) is 4.4
